The measurements presented in this section are drawn from patent US9102648B1.

For each entry below, report its recovery at 2 h, 10 μM value.
experiment: Bi-directional permeability, CACO-2; type: in vitro ADME; settings: Caco-2, pH 7, cell-free (blank) membrane, 10 μM; read-out: Percent Recovery Blank
Please state the number and follow it with the unit.

Looking for the measured recovery at 2 h, 10 μM of CCc1c(OC)cccc1C(=O)NN(C(=O)c1cc(C)cc(C)c1)C(C)(C)C , can you help?
78%

Same again, this time with Cc1cc(C)cc(C(=O)N(NC(=O)c2ccc3c(c2C)OCCO3)C(C)(C)C)c1
87%

---

biological target: GAL4 DBD (1-147)-CfEcR(DEF)/VP16AD-βRXREF-LmUSPEF (Choristoneura fumiferana, UniProt O77240); assay: cell-based; conditions: maximum fold induction at any concentration relative to that of GS-E ligand; CHO 27-63 cells
property.label: 27-63 assay Rel Max FI
Format: numeric value only, no unit, no commentary.

Looking for the measured 27-63 assay Rel Max FI of Cc1cc(C)cc(C(=O)N(NC(=O)c2ccc3c(c2)OC(C)O3)C(C)(C)C)c1 (stereo not shown) , can you help?
0.762

Same again, this time with Cc1ccc(F)c(C(=O)N(NC(=O)c2ccc3c(c2C)CCCO3)C(C)(C)C)c1
0.705

Same again, this time with COc1ccccc1C(=O)N(NC(=O)c1ccc2c(c1C)OCOC2)C(C)(C)C
0.685

Same again, this time with CCc1c(OC)cccc1C(=O)NN(C(=O)c1cc(C)cc(C)c1)C(C)(C)C=NNC(N)=O
0.53

---

Test: Partition coefficient Log (D), 1-octanol / pH 7.4 buffer
Type: physicochemical
Conditions: water-saturated 1-octanol / pH 7.4 buffer, room temperature
Experimental: The partition coefficient, Log (D), between water-saturated 1-octanol and pH 7.4 buffer was determined for the test compounds. The buffer was prepared as described in section 2. A 12 μl aliquot of a 10 mM stock solution in DMSO was introduced to a vial containing 0.60 mL of octanol and 0.60 mL of buffer at room temperature. Testosterone was also added to a final concentration of 100 μM as an internal control. […] The Log of the ratio of peak area responses was calculated to obtain the Log (D). […]
property.label: Log(D) Octanol/pH 7.4
Format: numeric value only, no unit, no commentary.

Looking for the measured Log(D) Octanol/pH 7.4 of CCc1c(OC)cccc1C(=O)NN(C(=O)c1cc(C)cc(C)c1)C(C)(C)C , can you help?
3.4

Same again, this time with CC(O)c1ccc(C(=O)NN(C(=O)c2cc(CO)cc(CO)c2)C(C)(C)C)cc1 (stereo not shown)
0.8

Same again, this time with CCCC(N(NC(=O)c1cccc(OC)c1C)C(=O)c1cc(C)cc(C)c1)C(C)(C)C (stereo not shown)
3.3

Same again, this time with CC(=O)c1ccc(C(=O)NN(C(=O)c2cc(C(=O)O)cc(C(=O)O)c2)C(C)(C)C)cc1
−2.1

Same again, this time with CCc1c(C(=O)NN(C(=O)c2ccc(F)c(C(F)(F)F)c2)C(C)(C)C)ccc2c1OCCO2
3.9

Same again, this time with COc1cnccc1C(=O)N(NC(=O)c1cccc(O)c1C)C(C)(C)C
2.1

Same again, this time with CCc1ccc(C(=O)NN(C(=O)c2cc(C)cc(C)c2)C(C)(C)C)cc1
3.2

Same again, this time with CCc1ccc(C(=O)NN(C(=O)c2cc(C)cc(C)c2)C(C)(C)C)c(F)c1
2.9

Same again, this time with CCC(N(NC(=O)c1cccc(C)c1C)C(=O)c1cc(C)cc(C)c1)C(C)(C)C (stereo not shown)
3.0

Same again, this time with CCc1c(OC)cccc1C(=O)NN(C(=O)c1ccccc1[S+](C)[O-])C(C)(C)C (stereo not shown)
2.0
